assayedTarget: β-tryptase (Homo sapiens)
Sequence (P20231 31-275): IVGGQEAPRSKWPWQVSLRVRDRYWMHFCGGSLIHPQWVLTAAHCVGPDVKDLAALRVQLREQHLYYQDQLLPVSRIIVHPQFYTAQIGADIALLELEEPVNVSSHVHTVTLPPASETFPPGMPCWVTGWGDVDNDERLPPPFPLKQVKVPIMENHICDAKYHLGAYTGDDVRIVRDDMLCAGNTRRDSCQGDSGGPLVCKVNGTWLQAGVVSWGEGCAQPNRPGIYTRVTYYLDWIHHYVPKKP
assay: Kinetic progress curves (kapp, K1, KI*, mechanism)
Format: biochemical
Parameters: purchased EnzoLife Sciences
statedConditions: β-tryptase K1, apparent equilibrium constant of the first step of slow-binding; mean ± SD
pKi: −log10 of the molar value.
Outcome: True for pKi of at least 6; False for anything lower.

C[C@@H]1NC(=O)N[C@@H]1CCCCCC(=O)NCCOCCOCCOCCn1cc(CCCOC(=O)NC(Cc2ccc(NC(=N)N)cc2)P(=O)(Oc2ccccc2)Oc2ccccc2)nn1 (stereo partly drawn) [50b]    False
C#CCCCOC(=O)NC(Cc1ccc(NC(=N)N)cc1)P(=O)(Oc1ccc(NC(C)=O)cc1)Oc1ccc(NC(C)=O)cc1 (stereo not drawn) [35b]    False
C[C@@H]1NC(=O)N[C@@H]1CCCCCC(=O)NCCOCCOCCOCCn1cc(CCCOC(=O)NC(Cc2ccc(NC(=N)N)cc2)P(=O)(Oc2ccc(Cl)cc2)Oc2ccc(Cl)cc2)nn1 (stereo partly drawn) [54b]    True
C#CCCCOC(=O)NC(Cc1ccc(NC(=N)N)cc1)P(=O)(Oc1ccccc1)Oc1ccccc1 (stereo not drawn) [34b]    False

Shifting focus to the compound that follows.
Reported pKi reaches at least 6 for C#CCCCOC(=O)NC(Cc1ccc(NC(=N)N)cc1)P(=O)(Oc1ccc(Cl)cc1)Oc1ccc(Cl)cc1 (stereo not drawn) [36b] ?
True

Values compiled from paper PMC9849758.
